tested on: Saccharomyces cerevisiae BY4741 SeMeCo community; test: z-score of prototroph abundance vs DMSO median; higher = larger share of this subpopulation than in DMSO controls; conditions: 10 µM; 24 h; SM minimal medium; subpopulation (auxotrophy): Prototroph
Counter-ions that a name gives are not always drawn.
value-type: z-score of prototroph abundance
Number, no unit, nothing else.

Entry "COc1ccc(CNc2nc(N3CCC[C@H]3CO)ncc2C(=O)NCc2ncccn2)cc1Cl" : reported z-score of prototroph abundance = ?
-0.15

Would you kindly share the measured z-score of prototroph abundance for CC1(C)S[C@@H]2[C@H](NC(=O)Cc3ccccc3)C(=O)N2[C@H]1C(=O)O [Penicillin G Sodium] ?
0.77

Request the reported z-score of prototroph abundance associated with CCC[S+]([O-])c1ccc2[nH]c(NC(=O)OC)nc2c1 (stereo not drawn) [Albendazole Oxide]
0.33

Reported z-score of prototroph abundance for CCc1c(C)[nH]c2c1C(=O)C(CN1CCOCC1)CC2 (stereo not drawn) [Molindone hydrochloride] : what is it?
0.46

Consider the compound COc1ccc2cc3[n+](cc2c1OC)CCc1cc2c(cc1-3)OCO2 [Berberine Sulfate] and give its measured z-score of prototroph abundance.
-0.5

Fill blank: measured z-score of prototroph abundance of the compound CC[N+](CC)(CC)CC [Tetraethylammonium bromide] is ____.
-0.64

Could you tell me which z-score of prototroph abundance is on file for COCCCN1CCC(NC(=O)c2cc(Cl)c(N)c3c2OCC3)CC1 [Prucalopride Succinate] ?
-1.55

Returns the measured z-score of prototroph abundance for the input compound. Input: O=C1OC(CN2CCOCC2)CN1/N=C/c1ccc([N+](=O)[O-])o1 (stereo not drawn) [Furaltadone HCl]
0.34

For the compound CNC1CCCN(c2c(F)cc3c(=O)c(C(=O)O)cn(C4CC4)c3c2OC)C1 (stereo not drawn) , what z-score of prototroph abundance is on record?
-0.14

Look up z-score of prototroph abundance: O=C([O-])CC(O)(CC(=O)[O-])C(=O)[O-].O=C([O-])CC(O)(CC(=O)[O-])C(=O)[O-].[Bi+3].[K+].[K+].[K+].[K+].[K+] [Bismuth Subcitrate Potassium]
0.38

Fill blank: measured z-score of prototroph abundance of the compound "CC(=O)[C@H]1CC[C@H]2[C@@H]3CCC4=CC(=O)CC[C@]4(C)[C@H]3CC[C@]12C" is ____.
0.96

Need z-score of prototroph abundance of CN(C)CCCN1c2ccccc2CCc2ccc(Cl)cc21 [Clomipramine HCl] , thanks.
-0.93

Request the reported z-score of prototroph abundance associated with COCCCN1CCC(NC(=O)c2cc(Cl)c(N)c3c2OCC3)CC1 [Prucalopride]
-0.29

Please look up its z-score of prototroph abundance: "Cc1nc(C)c(Cl)c(O)c1Cl"
0.11

What value of measured z-score of prototroph abundance is listed for CCC1(C)CC(=O)NC1=O (stereo not drawn) [Ethosuximide] ?
-0.06

Quick check: z-score of prototroph abundance of "O=C(NCCO[N+](=O)[O-])c1cccnc1" ?
0.69

Consider the compound shown here: "CN1CC(=O)N2[C@H](c3ccc4c(c3)OCO4)c3[nH]c4ccccc4c3C[C@@H]2C1=O" What is its recorded z-score of prototroph abundance?
-0.42

Could you share which z-score of prototroph abundance value was measured for CN1CCC(=C2c3ccccc3C=Cc3ccccc32)CC1 [Cyproheptadine hydrochloride] ?
0.23
